- Assay Details: Selectivity index, ratio of IC50 for dark toxicity in human Eca-109 cells to IC50 for phototoxicity against human Eca-109 cells under 730 nm laser irradiation at light dose of 12 J/cm^2
- Format: cell-based
- Study Conditions: Eca-109 cells, read-out: Ratio IC50
Quick rule for you: selectivity ratio at 2 or higher means y, lower means n.

Smiles Notation	Category Label
COc1cc(-c2c3nc(cc4[nH]c(c(-c5cc(OC)c(OCCCCCC(=O)O)c(OC)c5)c5nc(cc6[nH]c2c2cc7ccccc7cc62)-c2cc6ccccc6cc2-5)c2cc5ccccc5cc42)-c2cc4ccccc4cc2-3)cc(OC)c1OCCCCCC(=O)O	n
COc1cc(-c2c3nc(cc4[nH]c(c(-c5cc(OC)c(OCC(=O)O)c(OC)c5)c5nc(cc6[nH]c2c2cc7ccccc7cc62)-c2cc6ccccc6cc2-5)c2cc5ccccc5cc42)-c2cc4ccccc4cc2-3)cc(OC)c1OCC(=O)O	n
COc1cc(-c2c3nc(cc4[nH]c(c(-c5cc(OC)c(OCCCC(=O)O)c(OC)c5)c5nc(cc6[nH]c2c2cc7ccccc7cc62)-c2cc6ccccc6cc2-5)c2cc5ccccc5cc42)-c2cc4ccccc4cc2-3)cc(OC)c1OCCCC(=O)O	n

# input Test whether the compound O=C(O)CCCOc1cc(OCCCC(=O)O)cc(-c2c3nc(cc4[nH]c(c(-c5cc(OCCCC(=O)O)cc(OCCCC(=O)O)c5)c5nc(cc6[nH]c2c2cc7ccccc7cc62)-c2cc6ccccc6cc2-5)c2cc5ccccc5cc42)-c2cc4ccccc4cc2-3)c1 records selectivity ratio of 2 or higher.
# output y

# input Test whether the compound O=C(O)CCCCCOc1cc(OCCCCCC(=O)O)cc(-c2c3nc(cc4[nH]c(c(-c5cc(OCCCCCC(=O)O)cc(OCCCCCC(=O)O)c5)c5nc(cc6[nH]c2c2cc7ccccc7cc62)-c2cc6ccccc6cc2-5)c2cc5ccccc5cc42)-c2cc4ccccc4cc2-3)c1 records selectivity ratio of 2 or higher.
# output y

# input Test whether the compound O=C(O)CCCCCCOc1cc(OCCCCCCC(=O)O)cc(-c2c3nc(cc4[nH]c(c(-c5cc(OCCCCCCC(=O)O)cc(OCCCCCCC(=O)O)c5)c5nc(cc6[nH]c2c2cc7ccccc7cc62)-c2cc6ccccc6cc2-5)c2cc5ccccc5cc42)-c2cc4ccccc4cc2-3)c1 records selectivity ratio of 2 or higher.
# output n

# input Test whether the compound CC(C)(C)c1cc(-c2c3nc(cc4[nH]c(c(-c5cc(C(C)(C)C)c(OCCCCC(=O)O)c(C(C)(C)C)c5)c5nc(cc6[nH]c2c2cc7ccccc7cc62)-c2cc6ccccc6cc2-5)c2cc5ccccc5cc42)-c2cc4ccccc4cc2-3)cc(C(C)(C)C)c1OCCCCC(=O)O records selectivity ratio of 2 or higher.
# output n

# input Test whether the compound O=C(O)COc1cc(OCC(=O)O)cc(-c2c3nc(cc4[nH]c(c(-c5cc(OCC(=O)O)cc(OCC(=O)O)c5)c5nc(cc6[nH]c2c2cc7ccccc7cc62)-c2cc6ccccc6cc2-5)c2cc5ccccc5cc42)-c2cc4ccccc4cc2-3)c1 records selectivity ratio of 2 or higher.
# output y
